Consider the following log10(IC50) data for Prolyl endopeptidase FAP (Homo sapiens, UniProt Q12884), collected from several reports.
Readout type: log10(IC50) (log10 of the value in nM)

Structure notation: C[C@@]1(O)CCN(c2ccc3nccc(C(=O)NCC(=O)N4CSC[C@H]4C#N)c3c2)C1
Measured target: Prolyl endopeptidase FAP (Homo sapiens, UniProt Q12884)
Readout type: log10(IC50)
Value: -1.04
//
Structure notation: N#C[C@@H]1CSCN1C(=O)CNC(=O)c1ccnc2ccc(N3CC4CCC(C3)O4)cc12
Measured target: Prolyl endopeptidase FAP (Homo sapiens, UniProt Q12884)
Readout type: log10(IC50)
Value: -1.37
//
Structure notation: N#C[C@@H]1C[C@@H]2C[C@@H]2N1C(=O)CNC(=O)c1ccnc2ccc(Br)cc12
Measured target: Prolyl endopeptidase FAP (Homo sapiens, UniProt Q12884)
Readout type: log10(IC50)
Value: -0.36
//
Structure notation: COC(=O)CNC(=O)c1cc2nc(N3CCC[C@@H](N)C3)n(Cc3ccccc3C#N)c(=O)c2s1
Measured target: Prolyl endopeptidase FAP (Homo sapiens, UniProt Q12884)
Readout type: log10(IC50)
Value: 5.25
//
Structure notation: N#Cc1ccccc1Cn1c(N2CCC[C@@H](N)C2)nc2c(C(=O)NC3CCCCC3)csc2c1=O
Measured target: Prolyl endopeptidase FAP (Homo sapiens, UniProt Q12884)
Readout type: log10(IC50)
Value: 4.46
